biological target: Aedes aegypti neuropeptide Y-like receptor 7 (NPYLR7); experiment: agonists of mosquito NPYLR7 receptor, confirmation, cell-based, Aedes aegypti, hit validation, mosquito biting behavior (AID 1259427); details: HEK293T NPYLR7/Galpha15/GCaMP6s, calcium fluorescence;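 also: potency of agonists that activate the receptor and raise the calcium signal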
Active and inactive are the calls of the source.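 The calls were made as follows: active = EC50 at or below a set limit, with no effect in the paired counter-screen assay; inactive = the rest.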
Outcomes: active, inactive

compound=N#C/C(=C\c1ccc(O)c(O)c1)C(=O)NCCCc1ccccc1 group_label=active
compound=O=C1c2ccccc2C(=O)C1c1ccnc2ccccc12 group_label=inactive
compound=COc1ccccc1CCNC(=O)c1ccc(Cn2c(C)nc3ccccc32)o1 group_label=inactive
compound="CCC1CN(C(=O)c2cc(C(C)C)on2)CCC(=O)N1Cc1ccccc1 (stereo unspecified)" group_label=inactive
compound="COC(=O)C(C)Sc1nc2sc3c(c2c(=O)n1C)CCC3 (stereo unspecified)" group_label=inactive
compound=O=C(O)CCn1c(O)c(C=C2C=Nc3ccccc32)sc1=S group_label=inactive
compound=COc1ccc(N2CCN(c3cc(C(F)(F)F)nc(SCc4cccc(C(=O)NCc5ccccn5)c4)n3)CC2)cc1 group_label=inactive
compound=Nc1ccc2c3c(cccc13)C(=O)NC2=O group_label=inactive
compound=COc1ccc(CCN2COc3ccc4c(c3C2)O/C(=C\c2cccnc2)C4=O)cc1 group_label=inactive
compound="N#CC(C#N)=C1C=C2C=C(N3CCCC3)CCC2CC1 (stereo unspecified)" group_label=inactive
compound=O=C(O)CCN1C(=O)/C(=C/c2ccc(O)cc2)SC1=S group_label=inactive
